System: MOLT-4 cancer cell line
assay procedure: Cell proliferation assay, MOLT-4 cancer cell line (ATPlite);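 note: luminescence read-out, percent growth versus compound-free DMSO wells as maximum growth, start-of-incubation signal separating growth from cell death, IC50 from logistic curve fit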
Format: cell-based
condition summary: Homo sapiens, MOLT-4; 72 hours incubation, ATPlite 1Step; read-out: IC50 MOLT-4 cell proliferation
Measured IC50 of individual entries

>>> data_value("CCc1cccc(CC)c1NC(=O)c1ccn2c1CCc1cnc(Nc3ccc(N4CCOCC4)cc3C)nc1-2 [Example 83]")
"< 50 nM"
>>> data_value("COCCNC(=O)c1ccc(Nc2ncc3c(n2)-n2ccc(C(=O)Nc4c(C)cccc4C)c2CC3)c(OC)c1 [Example 127]")
"< 50 nM"
>>> data_value("CCOc1cc(N2CCN(C)CC2)ccc1Nc1ncc2c(n1)-n1ccc(C(=O)Nc3c(CC)n[nH]c3CC)c1CC2 [Example 31]")
"50 to 150 nM"
>>> data_value("COCCn1nc(C)c(NC(=O)c2ccn3c2CCc2cnc(Nc4ccc(N5CCN(C(C)=O)CC5)cc4OC)nc2-3)c1C [Example 131]")
"50 to 150 nM"
>>> data_value("Cc1cccc(C)c1NC(=O)c1ccn2c1CCc1cnc(Nc3ccc(N4CCN(C)CC4)cc3OC(F)F)nc1-2 [Example 144]")
"< 50 nM"
>>> data_value("CCc1cccc(CC)c1NC(=O)c1ccn2c1ccc1cnc(Nc3ccc(N4CCN(C)CC4)cc3OC)nc12 [Example 71]")
"< 50 nM"

Input line: Any idea what IC50 was measured for CCc1cccc(CC)c1NC(=O)c1ccn2c1CCc1cnc(Nc3ccc(OCCN(C)C)cc3OC)nc1-2 [Example 52] ?
Output line: 50 to 150 nM
